Molecular target: T1, 人CX3CL1胞外区蛋白 CX3CL1(Q25-Q341)-6xHis (human, UniProt P78423 25-341)
T1 sequence: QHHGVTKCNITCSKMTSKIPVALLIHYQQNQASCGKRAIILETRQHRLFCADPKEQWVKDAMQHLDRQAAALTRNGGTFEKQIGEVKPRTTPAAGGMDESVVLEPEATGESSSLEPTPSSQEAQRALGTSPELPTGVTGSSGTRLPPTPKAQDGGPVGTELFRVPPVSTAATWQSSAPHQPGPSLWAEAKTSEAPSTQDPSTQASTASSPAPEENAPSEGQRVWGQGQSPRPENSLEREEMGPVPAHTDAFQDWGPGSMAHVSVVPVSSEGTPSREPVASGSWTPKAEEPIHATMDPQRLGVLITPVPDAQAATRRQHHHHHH
Test: cell-based or functional assay
抑制cAMP活性 MAX for assorted binders
// no unit string in output, number only

Some entries whose results are on file:
C032 (antibody, human IgG2, kappa, V domains shown, Human-mouse chimeric antibody of mAb032 with human IgG2 constant region, expressed in CHOK1; also called 嵌合抗体C032) VH: EVQLQQSGPELVKPGASVKISCKASGYTFTDYYMNWVKQSHGKSLEWIGDINPNNGGTSYNQKFKGKATLTVDKSSSTAYMELRSLTSEDSAVYYCASSGNSYVDYWGQGTTLTVSS VL: DIVMTQSHKFMSTSVGDRVSITCKASQDVSTAVAWYQQKPGQSPKLLIYWASTRHTGVPDRFTGSGSGTDYTLTISSVQAEDLALYYCQQHYSSPYTFGGGTKLEIKR :: 95.8
C032NA (antibody, human IgG2, kappa, V domains shown, Chimeric IgG2 mutant of C032 removing the NG hot spot of HCDR2 (NG to NA)) VH: EVQLQQSGPELVKPGASVKISCKASGYTFTDYYMNWVKQSHGKSLEWIGDINPNNAGTSYNQKFKGKATLTVDKSSSTAYMELRSLTSEDSAVYYCASSGNSYVDYWGQGTTLTVSS VL: DIVMTQSHKFMSTSVGDRVSITCKASQDVSTAVAWYQQKPGQSPKLLIYWASTRHTGVPDRFTGSGSGTDYTLTISSVQAEDLALYYCQQHYSSPYTFGGGTKLEIKR :: 92.5

Proceeding to the next binder to report its 抑制cAMP活性 MAX.
According to the records, this binder mAb022 (antibody, V domains shown, Murine monoclonal antibody purified from hybridoma supernatant; also called 15F7B2) VH: EVQLQQSGPELVKPGASVKISCKASGYTFTDYYMNWVKQSHGKSLEWIGDINPNNGGTNYNQKFKGKATLTVDKSSSTAYMELRSLTSEDSAVFYCASSGNSYVDYWGQGTTLTVSS VL: DIVMTQSHKFMSTSVGDRVNITCKASQDVSTAVAWYQQKPGQSPKLLIYWASTRHTGVPDRFTGSGSGTDYTLTISSVQAEDLALYYCQQHYSSPYTFGGGTKLEIK displays 抑制cAMP活性 MAX of 105
